# TARGET DESC: Cytochrome P450 1B1 (Homo sapiens)
# ASSAY REMARKS: Inhibition of recombinant human CYP1B1 expressed in baculovirus infected insect cells using 7-ethoxyresorufin as substrate preincubated for 5 mins followed by NADPH addition and measured after 15 mins by EROD assay
MEASURE: log10 of IC50 (log10 of the value in nM)
Please keep in mind that the values are log10 of IC50 expressed in nM.

Guide cases for log10 of IC50, answers given:
# COMPOUND, MEASURE, MEASURED RESULT
data = [
    ("COc1ccc(OC)c2c1c(OC)cc1c(=O)cc(-c3ccc(-c4cn(CCCCCCOc5cccc6c5C(=O)N(C5CCC(=O)NC5=O)C6=O)nn4)cc3)oc12 (stereo not drawn)", "log10 of IC50", 1.98),
    ("COc1ccc(OC)c2c1c(OC)cc1c(=O)cc(-c3ccc(-c4cn(CCOc5cccc6c5C(=O)N(C5CCC(=O)NC5=O)C6=O)nn4)cc3)oc12 (stereo not drawn)", "log10 of IC50", 2.00),
    ("C#Cc1ccc(-c2cc(=O)c3cc(OC)c4c(OC)ccc(OC)c4c3o2)cc1", "log10 of IC50", 0.32),
    ("COc1ccc(OC)c2c1c(OC)cc1c(=O)cc(-c3ccc(Cl)cc3)oc12", "log10 of IC50", -0.22),
]

Kindly consider the entry below.
Ask | Give its log10 of IC50 value. Item: `COc1ccc(OC)c2c1c(OC)cc1c(=O)cc(-c3ccc(-c4c[nH]nn4)cc3)oc12`
Reply | -0.40

---

Listing: IC50 of selected compounds
# TARGET DESC: Cytochrome P450 1B1 (Homo sapiens, UniProt Q16678)
# Sequence (Q16678 whole entry): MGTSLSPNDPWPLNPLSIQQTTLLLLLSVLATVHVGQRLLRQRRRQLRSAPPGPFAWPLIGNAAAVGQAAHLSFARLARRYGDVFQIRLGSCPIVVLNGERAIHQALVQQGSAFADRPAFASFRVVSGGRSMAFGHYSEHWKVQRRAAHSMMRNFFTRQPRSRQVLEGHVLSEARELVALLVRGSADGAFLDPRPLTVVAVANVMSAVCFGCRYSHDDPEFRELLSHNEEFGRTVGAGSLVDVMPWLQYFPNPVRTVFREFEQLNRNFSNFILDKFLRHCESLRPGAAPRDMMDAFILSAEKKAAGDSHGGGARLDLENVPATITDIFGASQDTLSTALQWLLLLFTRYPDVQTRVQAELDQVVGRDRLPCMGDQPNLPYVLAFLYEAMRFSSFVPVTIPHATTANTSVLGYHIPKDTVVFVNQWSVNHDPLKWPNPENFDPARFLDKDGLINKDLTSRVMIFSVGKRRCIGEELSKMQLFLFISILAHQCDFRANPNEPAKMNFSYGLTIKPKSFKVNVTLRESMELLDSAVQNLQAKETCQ
# ASSAY REMARKS: Inhibition of recombinant human CYP1B1 expressed in baculovirus infected insect cells using 7-ethoxyresorufin as substrate preincubated for 5 mins followed by NADPH addition and measured after 15 mins by EROD assay
Expressed in nM, but write only the number.

# COMPOUND, MEASURED RESULT
data = [
    ("COc1ccc(OC)c2c1c(OC)cc1c(=O)cc(-c3ccccc3)oc12", 1.4),
    ("COc1ccc(OC)c2c1c(OC)cc1c(=O)cc(-c3ccc(-c4cn(CCCCCOc5cccc6c5C(=O)N(C5CCC(=O)NC5=O)C6=O)nn4)cc3)oc12 (centres undefined)", 153),
]

Kindly consider the entry below.
Ask | Give its IC50 value. Item: COc1ccc(OC)c2c1c(OC)cc1c(=O)cc(-c3ccc(-c4cn(CCCCCCCCOc5cccc6c5C(=O)N(C5CCC(=O)NC5=O)C6=O)nn4)cc3)oc12 (centres undefined)
Reply | 166

---

# TARGET DESC: Cytochrome P450 1A2 (Homo sapiens)
# Sequence (P05177 whole entry): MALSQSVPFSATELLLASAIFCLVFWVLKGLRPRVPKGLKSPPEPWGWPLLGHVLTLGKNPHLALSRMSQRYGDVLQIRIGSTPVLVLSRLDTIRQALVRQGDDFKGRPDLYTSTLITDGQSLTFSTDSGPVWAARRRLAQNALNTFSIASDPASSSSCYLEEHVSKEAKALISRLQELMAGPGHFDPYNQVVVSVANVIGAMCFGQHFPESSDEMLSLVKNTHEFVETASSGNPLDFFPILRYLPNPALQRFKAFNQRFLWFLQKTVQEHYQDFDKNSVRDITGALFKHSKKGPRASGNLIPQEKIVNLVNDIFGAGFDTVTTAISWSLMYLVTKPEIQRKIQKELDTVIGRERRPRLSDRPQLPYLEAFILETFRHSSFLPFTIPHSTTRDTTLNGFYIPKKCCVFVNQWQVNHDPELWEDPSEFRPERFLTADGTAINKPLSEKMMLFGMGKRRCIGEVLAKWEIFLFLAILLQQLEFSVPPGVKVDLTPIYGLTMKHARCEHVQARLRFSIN
# ASSAY REMARKS: Inhibition of recombinant human CYP1A2 expressed in baculovirus infected insect cells using 7-ethoxyresorufin as substrate preincubated for 5 mins followed by NADPH addition and measured after 35 mins by EROD assay
MEASURE: log10 IC50 (log10 of the value in µM)
Please keep in mind that the values are log10 of IC50 expressed in µM.

Guide cases for log10 IC50, answers given:
# MOLECULE, log10 IC50
data = [
    ("COc1ccc(OC)c2c1c(OC)cc1c(=O)cc(-c3ccc(Cl)cc3)oc12", -1.43),
    ("COc1ccc(OC)c2c1c(OC)cc1c(=O)cc(-c3ccc(-c4c[nH]nn4)cc3)oc12", -1.32),
    ("COc1ccc(OC)c2c1c(OC)cc1c(=O)cc(-c3ccccc3)oc12", -1.59),
    ("COc1ccc(OC)c2c1c(OC)cc1c(=O)cc(-c3ccc(-c4cn(CCCCCCCCOc5cccc6c5C(=O)N(C5CCC(=O)NC5=O)C6=O)nn4)cc3)oc12 (stereo not drawn)", 0.87),
    ("COc1ccc(OC)c2c1c(OC)cc1c(=O)cc(-c3ccc(-c4cn(CCOc5cccc6c5C(=O)N(C5CCC(=O)NC5=O)C6=O)nn4)cc3)oc12 (stereo not drawn)", 0.96),
]

Kindly consider the entry below.
Ask | Give its log10 IC50 value. Item: COc1ccc(OC)c2c1c(OC)cc1c(=O)cc(-c3ccc(-c4cn(CCCCCCOc5cccc6c5C(=O)N(C5CCC(=O)NC5=O)C6=O)nn4)cc3)oc12 (stereo not drawn)
Reply | 0.99
